- procedure_summary: Pharmacokinetics of sorafenib in plasma
- Type: in vivo
- condition: human, oral, 400 mg, AUC0–12, Cohort 2, cycle 2, day 2, 400 mg sd (n = 6), geometric mean (% CV)
observed_property: AUC(0-t) (ng·h/mL)
Numbers only, in ng·h/mL.

Lab book: AUC(0-t) of CNC(=O)c1cc(Oc2ccc(NC(=O)Nc3ccc(Cl)c(C(F)(F)F)c3)cc2)ccn1 noted as 14600

---

- procedure_summary: Pharmacokinetics of sorafenib in plasma
- Type: in vivo
- condition: human, oral, 400 mg, t 1/2, Cohort 2, cycle 2, day 19, 400 mg bid (n = 4), geometric mean (% CV)
observed_property: half-life (h)
Give bare numbers, in h.

The compound listed as CNC(=O)c1cc(Oc2ccc(NC(=O)Nc3ccc(Cl)c(C(F)(F)F)c3)cc2)ccn1 shows half-life equal to 23.9
